Assay: Zebrafish embryo mortality/toxicity
Format: in vivo
Conditions: wild-type, in vivo; zebrafish embryos, overnight exposure, 0.5 to 1000 µM; mean of three biological replicates ± standard deviation
Experimental: The zebrafish embryos were obtained by natural pairwise breeding, and were treated essentially as described previously. The compounds were dissolved in dimethylsulfoxide (DMSO) in order to prepare a stock concentration of 10 mM. The embryos treated with 0.10% DMSO (v/v) served as the negative controls. […] A stock solution of 50 mM was prepared by dissolving the compounds in dimethyl sulfoxide (DMSO). […] The number of dead and living embryos were counted after the overnight exposure.
readout.name: LC50

INSERT INTO measurements (compound, recorded_value) VALUES
  ('COC(=O)CNC(=O)CNc1nc(Nc2ccc(OC)cc2)nc(N2CCOCC2)n1', '> 1000 µM'),
  ('COC(=O)CNC(=O)CNc1nc(Nc2ccc(OC)cc2)nc(N2CCCCC2)n1', '80.2 µM'),
  ('COC(=O)C(C)NC(=O)CNc1nc(Nc2ccccc2)nc(N2CCOCC2)n1 (stereo not shown)', '> 1000 µM'),
  ('COC(=O)CNC(=O)CNc1nc(Nc2ccc(Cl)cc2)nc(N2CCOCC2)n1', '> 1000 µM'),
  ('COC(=O)CNC(=O)CNc1nc(Nc2ccc(Cl)cc2)nc(N2CCCCC2)n1', '6.22 µM'),
  ('COC(=O)C(NC(=O)CCNc1nc(Nc2ccc(Cl)cc2)nc(N2CCCCC2)n1)C(C)C (stereo not shown)', '1.97 µM'),
  ('COC(=O)CNC(=O)CCNc1nc(Nc2ccc(Cl)cc2)nc(N2CCOCC2)n1', '5.58 µM');

----------
System: MCF-7 cells
Assay: MTT cell viability assay, MCF-7
Type: cell-based, human
Conditions: Homo sapiens, MCF7, 72 h, 72 h treatment
Entries annotated with measured IC50
readout.name: IC50 (µM)

INSERT INTO results (molecule, unit_descriptor, comparison_operator, recorded_value) VALUES
  ('COC(=O)CNC(=O)CNc1nc(Nc2ccccc2)nc(N2CCOCC2)n1 [Compound 3a]', 'µM', '<', 1),
  ('COC(=O)C(NC(=O)CCNc1nc(Nc2ccc(Cl)cc2)nc(N2CCOCC2)n1)C(C)C (stereo not shown) [Compound 3n]', 'µM', '=', 2.35),
  ('COC(=O)CNC(=O)CNc1nc(Nc2ccccc2)nc(N2CCCCC2)n1 [Compound 3h]', 'µM', '=', 19.6),
  ('COC(=O)C(C)NC(=O)CNc1nc(Nc2ccc(OC)cc2)nc(N2CCOCC2)n1 (stereo not shown) [Compound 3f]', 'µM', '=', 8.02),
  ('COC(=O)CNC(=O)CNc1nc(Nc2ccc(Cl)cc2)nc(N2CCCCC2)n1 [Compound 3i]', 'µM', '=', 8.37),
  ('COC(=O)CNC(=O)CNc1nc(Nc2ccc(OC)cc2)nc(N2CCCCC2)n1 [Compound 3j]', 'µM', '=', 25.3),
  ('COC(=O)C(C)NC(=O)CNc1nc(Nc2ccc(Cl)cc2)nc(N2CCCCC2)n1 (stereo not shown) [Compound 3l]', 'µM', '=', 1.46);

Values from paper PMC7926980
